Assay: Therapeutic drug monitoring of CMS and Colistin plasma levels by HPLC-MS/MS
Details: human, in vivo
Bridge positions count the residues as written; N and C are the ends. Square brackets hold non-standard residues; d marks the D form. Peptide text beside a SMILES is read from it. * marks the point of attachment. X1 = CC[C@H](C)CCCCC(=O)*; Dab = NCC[C@H](N)C(=O)O
ASSAY READOUT: level at 720 h

For CC[C@H](C)CCCCC(=O)N[C@@H](CCN)C(=O)N[C@H](C(=O)N[C@@H](CCN)C(=O)N[C@H]1CCNC(=O)[C@H]([C@@H](C)O)NC(=O)[C@H](CCN)NC(=O)[C@H](CCN)NC(=O)[C@H](CC(C)C)NC(=O)[C@@H](CC(C)C)NC(=O)[C@H](CCN)NC1=O)[C@@H](C)O [Colistin] (X1-[Dab]T[Dab][Dab][Dab][dL]L[Dab][Dab]T; lactam 4-C) the compound record lists level at 720 h as < 2000 ng/mL

====

Assay: Therapeutic drug monitoring of CMS and Colistin plasma levels by HPLC-MS/MS
Conditions: human, in vivo
Bridge positions count the residues as written; N and C are the ends. Square brackets hold non-standard residues; d marks the D form. Peptide text beside a SMILES is read from it. * marks the point of attachment. X1 = CC[C@H](C)CCCCC(=O)*; Dab = NCC[C@H](N)C(=O)O
ASSAY READOUT: level at 48 h

For CC[C@H](C)CCCCC(=O)N[C@@H](CCN)C(=O)N[C@H](C(=O)N[C@@H](CCN)C(=O)N[C@H]1CCNC(=O)[C@H]([C@@H](C)O)NC(=O)[C@H](CCN)NC(=O)[C@H](CCN)NC(=O)[C@H](CC(C)C)NC(=O)[C@@H](CC(C)C)NC(=O)[C@H](CCN)NC1=O)[C@@H](C)O [Colistin] (X1-[Dab]T[Dab][Dab][Dab][dL]L[Dab][Dab]T; lactam 4-C) the compound record lists level at 48 h as > 2000 ng/mL
